Here, each record is paired with measured pIC50 data.
- Test system: HCV luciferase replicon
- protocol: HCV luciferase replicon IC50 assay in Huh7 cells
- assay_setup: Hepatitis C virus, Huh-7, cells incubated with drug for 2 h, followed by 46 h without drug
// pIC50 here means minus log10 of the molar concentration (mol/L)

In [3]: df
Out[3]:
                                   compound         target_or_system  reported_measurement
0  COc1cc(C(=O)Nc2ccn([C@@H]3O[C@H](CO)[C@@H](O)C3(F)F)c(=O)n2)cc(OC)c1OC [GTB, N^4-(3,4,5-Trimethoxybenzoyl)gemcitabine]  HCV luciferase replicon                  5.56

Consider the record given below.
// pIC50 lookup, key: Nc1ccn([C@@H]2O[C@H](CO)[C@@H](O)C2(F)F)c(=O)n1 [gemcitabine, reference compound]
6.77

---

Recorded CC50 at 48 h values for a group of compounds are listed next.
- protocol: TC50 MTS assay: PK9 cells
- Assay type: cell-based
- assay_setup: human, 48 h drug treatment
Give the quantity in µM, number only.

                                   compound  reported_measurement
0  Nc1ccn([C@@H]2O[C@H](CO)[C@@H](O)C2(F)F)c(=O)n1 [gemcitabine, reference compound]                 0.095

What does the data say about its CC50 at 48 h? Entry: COc1cc(C(=O)Nc2ccn([C@@H]3O[C@H](CO)[C@@H](O)C3(F)F)c(=O)n2)cc(OC)c1OC [GTB, N^4-(3,4,5-Trimethoxybenzoyl)gemcitabine]
1.69

---

- Test system: hENT1
- protocol: TC50 MTS assay with human cancer cell lines: Huh7
- Type: cell-based
- assay_setup: human, Huh7 cells; 48 h drug treatment; 10 μM S-(4-nitrobenzyl)-6-thioinosine (hENT1 inhibitor) added; read-out: TC50 (μM) in Huh7 cells NBTI
quantity_kind: CC50 at 48 h (µM)
Unit µM implied. Number only.

>>> print(df.to_string())
                                   molecule  target_or_system  quantity_kind  units_symbol  reported_measurement
0  Cc1ccc(C(=O)Nc2ccn(C3O[C@H](CO)[C@@H](O)C3(F)F)c(=O)n2)cc1 (stereo partly drawn)             hENT1   CC50 at 48 h            µM                   240

As a next step, examine the molecule that follows.
What value of CC50 at 48 h has been reported for the following molecule? CCc1ccc(C(=O)Nc2ccn(C3O[C@H](CO)[C@@H](O)C3(F)F)c(=O)n2)cc1 (stereo partly drawn)
360

---

- protocol: in vitro
quantity_kind: CC50 at 48 h (µM)
Write the number in µM without appending the unit.

In [3]: df
Out[3]:
                                   compound  quantity_kind  reported_measurement
0  COc1ccc(C(=O)Nc2ccn(C3O[C@H](CO)[C@@H](O)C3(F)F)c(=O)n2)c(OC)c1OC (stereo partly shown) [VV-022]   CC50 at 48 h                   300

I'd like to know its CC50 at 48 h. The compound in question is COc1cc(C(=O)Nc2ccn([C@@H]3O[C@H](CO)[C@@H](O)C3(F)F)c(=O)n2)cc(OC)c1OC [GTB, N^4-(3,4,5-Trimethoxybenzoyl)gemcitabine]
495

Please give the measured CC50 at 48 h for this compound: COc1ccc(C(=O)Nc2ccn(C3O[C@H](CO)[C@@H](O)C3(F)F)c(=O)n2)cc1 (stereo partly shown) [VV-013]
572
